Biological target: T1, human CD98hc endogenously expressed on HCMEC/D3 cells (human)
T1 construct: human brain endothelial cell line
T1 chain: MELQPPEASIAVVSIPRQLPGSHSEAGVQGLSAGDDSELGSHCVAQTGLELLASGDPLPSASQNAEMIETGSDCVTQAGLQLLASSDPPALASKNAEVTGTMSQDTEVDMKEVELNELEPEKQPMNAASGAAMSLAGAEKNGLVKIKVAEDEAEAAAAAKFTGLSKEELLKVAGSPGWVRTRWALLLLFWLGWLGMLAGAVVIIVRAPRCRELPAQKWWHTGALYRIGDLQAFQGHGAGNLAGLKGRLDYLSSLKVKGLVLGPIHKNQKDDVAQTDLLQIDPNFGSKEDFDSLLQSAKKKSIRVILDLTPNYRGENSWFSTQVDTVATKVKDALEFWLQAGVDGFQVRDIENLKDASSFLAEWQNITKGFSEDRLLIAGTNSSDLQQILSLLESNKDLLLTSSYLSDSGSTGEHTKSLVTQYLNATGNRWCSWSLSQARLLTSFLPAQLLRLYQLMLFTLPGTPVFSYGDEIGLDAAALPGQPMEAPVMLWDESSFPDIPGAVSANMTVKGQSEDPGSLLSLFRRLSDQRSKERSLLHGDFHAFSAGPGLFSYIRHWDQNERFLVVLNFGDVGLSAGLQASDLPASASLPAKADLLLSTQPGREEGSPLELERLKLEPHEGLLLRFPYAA
Assay: FACS, hybridoma supernatant
PROPERTY LABEL: MFI ratio over secondary antibody
Please state the value as a number alone, without comment.

Study these solved cases before continuing.
BINDER	MFI ratio over secondary antibody
CD98HC.04.010 (antibody, V domains shown, hybridoma IgG) VH: QVQLQQSGAELMKPGASVKISCKATGYTFSTYWIEWVKQRPGHGLEWIGEILPGSGTTTYNEKFKGKATFTADTSSNTAYMQLSSLTSEDSAVYYCARRTVYYRYEGIDYWGQGTTLTVSS VL: QIVLTQSPAIMSASPGEKVTITCSASSSVSYMFWFQQRPGTSPKLWIYTTSNLASGVPARFSGSGSGTSYSLTISRMEAEDAATYYCQQKNNYPFTFGSGTKLEIK	151
CD98HC.04.006 (antibody, V domains shown, hybridoma IgG) VH: EVNLVESGGDLVQPGGSLRLSCATSGFTFTDYFMSWVRQPPGKALEWLGFIRNKAYGYTTEYSASVKGRFTISRDNSQSIFYLQMNTLRLEDSATYYCARGPFISTAPFAYWGQGTLVTVSA VL: DIVMSQSPSSLAVSVGETVTMSCKSSQSLLYSSNQKNYLAWYQQKPGQSPKLLIYWGSTRESGVPDRFTGSGSGTDFTLTISSVKAEDLAVYYCQHYYGYPWTFGGGTKLEIK	197

Next:
Any idea what MFI ratio over secondary antibody was measured for CD98HC.04.045 (antibody, V domains shown, hybridoma IgG) VH: QIQLVQSGPELKKPGETVKISCKASGYSITNFGMNWVKQAPGKGLKWMGWVNTYTGEPTYADDFKGRFAFSLETSASTASLQINNLKNEDTATYFCTRSVITYTMDYWGQGTSVTVSS VL: DIQLTQSPSSLSASLGERVSLTCRASQEISGYLSWLQQKPDGTIKRLIYAASTLDSGVPKRFSGSRSGSDYSLTISSLESEDFADYYCLQYASYPRTFGGGTKVEIK ?
4
